meta.source: patent US20260053834A1

# target.entity: AKT1 E17K (Homo sapiens, UniProt P31749, E17K)
# Construct: expressed in transfected cells; host or cells: HEK293
# Sequence (P31749 whole entry E17K): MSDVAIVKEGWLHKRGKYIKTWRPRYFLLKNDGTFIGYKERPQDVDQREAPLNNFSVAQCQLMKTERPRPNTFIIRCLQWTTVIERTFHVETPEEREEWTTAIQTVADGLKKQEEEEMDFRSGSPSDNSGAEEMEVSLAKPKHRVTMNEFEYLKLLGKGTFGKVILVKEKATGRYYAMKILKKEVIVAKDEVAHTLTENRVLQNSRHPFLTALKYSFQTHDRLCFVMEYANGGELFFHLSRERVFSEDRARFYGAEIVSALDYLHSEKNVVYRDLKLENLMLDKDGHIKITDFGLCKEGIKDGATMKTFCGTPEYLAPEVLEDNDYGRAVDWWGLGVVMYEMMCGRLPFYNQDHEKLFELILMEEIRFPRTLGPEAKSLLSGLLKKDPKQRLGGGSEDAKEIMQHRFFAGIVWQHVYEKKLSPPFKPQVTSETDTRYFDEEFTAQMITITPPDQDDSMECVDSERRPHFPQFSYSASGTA
# assay.notes: Live cell target engagement by NanoBRET competitive probe displacement, AKT1 E17K
# Assay type: binding
# recorded.conditions: transfected HEK293 cells, 2 h at 37° C., read-out: AKT1 E17K IC50: GeoMean IC50
pIC50: −log10 of the molar value.
measured.quantity: pIC50

Req: Fill blank: measured pIC50 of the molecule Nc1ncccc1-c1nc2ccc(-c3ccn(C4CC4)n3)nc2n1-c1ccc2c(c1)CC[C@@H]2NC(=O)c1cc(C=O)c(O)cc1F [Example 240] is ____.
Resp: 7.00 to 8.00

Req: # iterate: [N-]=[N+]=Nc1c(C(=O)N[C@H]2CCc3cc(-n4c(-c5cccnc5N)nc5ccc(-n6cccn6)nc54)ccc32)cc(C=O)c(O)c1F [Example 218]
Resp: 5.70 to 7.00

Req: # iterate: C#Cc1ccn(-c2ccc3nc(-c4cccnc4N)n(-c4ccc5c(c4)CC[C@@H]5NC(=O)c4ccc(O)c(C=O)c4)c3n2)n1 [Example 119]
Resp: > 8.00

Req: # iterate: Nc1cc(O)c(C=O)cc1C(=O)N[C@H]1CCc2cc(-n3c(-c4cccnc4N)nc4ccc(-n5cccn5)nc43)ccc21 [Example 237]
Resp: 7.00 to 8.00

Req: # iterate: Cc1cc(-n2nccn2)nc2c1nc(-c1cccnc1N)n2-c1ccc2c(c1)CC[C@@H]2NC(=O)c1ccc(O)c(C=O)c1 [Example 234]
Resp: 7.00 to 8.00

Req: # iterate: Nc1ncccc1-c1nc2ccc(-n3ccc(F)n3)nc2n1-c1ccc2c(c1)CC[C@@H]2NC(=O)c1cc(C=O)c(O)cc1F [Example 135]
Resp: 7.00 to 8.00

Req: # iterate: Nc1ncccc1-c1nc2ccc(-n3cccn3)nc2n1-c1ccc2c(c1)CC(O)C2NC(=O)c1ccc(O)c(C=O)c1 (centres unmarked) [Example 251]
Resp: 7.00 to 8.00

Req: # iterate: Nc1ncccc1-c1nc2ccc(-c3cccnc3)nc2n1-c1ccc2c(c1)CC[C@@H]2NC(=O)c1ccc(O)c(C=O)c1 [Example 23]
Resp: 7.00 to 8.00

Req: # iterate: Nc1ncccc1-c1nc2ccc(-c3ccc(F)cc3)nc2n1-c1ccc2c(c1)CC[C@@H]2NC(=O)c1ccc(O)c(C=O)c1 [Example 20]
Resp: 7.00 to 8.00

Req: # iterate: Cc1cc(-n2cccn2)nc2c1nc(-c1cccnc1N)n2-c1ccc2c(c1)CC[C@@H]2NC(=O)c1ccc(O)c(C=O)c1 [Example 131]
Resp: 7.00 to 8.00

Req: # iterate: COCc1ccn(-c2ccc3nc(-c4cccnc4N)n(-c4ccc5c(c4)CC[C@@H]5NC(=O)c4ccc(O)c(C=O)c4)c3n2)n1 [Example 126]
Resp: > 8.00

Req: # iterate: Nc1ncccc1-c1nc2ccc(-c3nccs3)nc2n1-c1ccc2c(c1)CC[C@@H]2NC(=O)c1cc(F)c(O)c(C=O)c1 [Example 130]
Resp: 7.00 to 8.00

Req: # iterate: [N-]=[N+]=Nc1cc(O)c(C=O)cc1C(=O)N[C@H]1CCc2cc(-n3c(-c4cccnc4N)nc4ccc(-n5cccn5)nc43)ccc21 [Example 235]
Resp: 7.00 to 8.00

Req: # iterate: Nc1ncccc1-c1nc2ccc(-n3cccn3)nc2n1-c1ccc2c(c1)CC[C@@H]2n1cnc2cc(O)c(C=O)cc2c1=O [Example 184]
Resp: 7.00 to 8.00

Req: # iterate: CN(C)c1cc(C(=O)N[C@H]2CCc3cc(-n4c(-c5cccnc5N)nc5ccc(-n6cccn6)nc54)ccc32)cc(C=O)c1O [Example 228]
Resp: 7.00 to 8.00

Req: # iterate: CC(=O)Nc1ccc(C(=O)N[C@H]2CCc3cc(-n4c(-c5cccnc5N)nc5ccc(N6CCOCC6)nc54)ccc32)cc1C=O [Example 53]
Resp: > 8.00

Req: # iterate: N#Cc1ccn(-c2ccc3nc(-c4cccnc4N)n(-c4ccc5c(c4)CC[C@@H]5NC(=O)c4ccc(O)c(C=O)c4)c3n2)n1 [Example 108]
Resp: 7.00 to 8.00

Req: # iterate: Cc1cnc(-c2ccc3nc(-c4cccnc4N)n(-c4ccc5c(c4)CC[C@@H]5NC(=O)c4cc(C=O)c(O)c(F)c4F)c3n2)s1 [Example 186]
Resp: 7.00 to 8.00

Req: # iterate: Nc1ncccc1-c1nc2ccc(NC3CC3)nc2n1-c1ccc2c(c1)CC[C@@H]2NC(=O)c1ccc(O)c(C=O)c1 [Example 87]
Resp: 7.00 to 8.00

Req: # iterate: Nc1ncccc1-c1nc2ccc(-c3ncc(F)s3)nc2n1-c1ccc2c(c1)CC[C@@H]2NC(=O)c1cc(C=O)c(O)c(F)c1F [Example 193]
Resp: 7.00 to 8.00

Req: # iterate: CC(=O)Nc1ccc(C(=O)N[C@H]2CCc3cc(-n4c(-c5cccnc5N)nc5ccc(-n6cccn6)nc54)ccc32)cc1C=O [Example 56]
Resp: > 8.00

Req: # iterate: Nc1ncccc1-c1nc2ccc(-c3nccs3)nc2n1-c1ccc2c(c1)CC[C@@H]2NC(=O)c1cc(C=O)c(O)cc1F [Example 144]
Resp: 7.00 to 8.00

Req: # iterate: Cc1nnc(-c2ccc3nc(-c4cccnc4N)n(-c4ccc5c(c4)CC[C@@H]5NC(=O)c4ccc(O)c(C=O)c4)c3n2)s1 [Example 203]
Resp: 7.00 to 8.00

Req: # iterate: Nc1ncccc1-c1nc2ccc(-n3cc(C=O)cn3)nc2n1-c1ccc2c(c1)CC[C@@H]2NC(=O)c1ccc(O)c(C=O)c1 [Example 84]
Resp: 7.00 to 8.00

Req: # iterate: Nc1ncccc1-c1nc2c(OC(F)F)cc(-n3cccn3)nc2n1-c1ccc2c(c1)CC[C@@H]2NC(=O)c1ccc(O)c(C=O)c1 [Example 225]
Resp: 7.00 to 8.00

Req: # iterate: Nc1ncccc1-c1nc2ccc(-c3cnn(C(F)F)c3)nc2n1-c1ccc2c(c1)CC[C@@H]2NC(=O)c1ccc(O)c(C=O)c1 [Example 61]
Resp: 7.00 to 8.00
